Source listed as PubChem BioAssay AID330.

- Tested on: P388 leukemia ip, CD2F1 mice, survival T/C
- EXPERIMENT DESCRIPTION: NCI In Vivo Anticancer Drug Screen. Data for tumor model P388 Leukemia (intraperitoneal) in CD2F1 (CDF1) mice
- REPORTED CONDITIONS: endpoint: median survival time; dose: 50.0 mg/kg/injection; schedule: Q01DX009 (ip); vehicle: saline with Tween-80
Toxic doses and inconclusive results are not listed. The calls were made as follows: active = survival T/C of 150% or more; inactive = T/C below 125% in these data.
Classes to choose from: active, inactive

Record excerpt, results attached:
COMPOUND | ASSIGNED CLASS
Cc1nc2c(N)nn(C)c2nc1C | inactive
Cc1[nH]c(NC(=O)C(=O)O)c(C#N)c1C | inactive
CCCCCCCCCC(O)(CSc1ccccc1)CSc1ccccc1 | inactive
Brc1cc2ccccc2c2ccccc12 | inactive
O=C(Cc1ccc(-c2ccccc2)cc1)Nc1ccccn1 | inactive
CCOC(=O)c1ccc2c(c1)C(C)(SC)C(=O)N2 (centres undefined) | inactive
CCSC1(SCC)C(=O)OC2=C(CCCCC2)C1N(C)c1ccccc1 (centres undefined) | inactive
O=C1NN=C(c2ccccc2)CS1 | inactive

I'd appreciate the recorded outcome for CCNC(=O)Nc1nc2ccccc2[nH]1 from this test.
inactive

I'd appreciate the recorded outcome for CC(C)S(=O)(=O)/C(Cl)=C(/Cl)C(Cl)=C(Cl)Cl from this test.
inactive

I'd appreciate the recorded outcome for COc1ccc(-c2sc(-c3ccccc3)nc2O)cc1 from this test.
inactive

I'd appreciate the recorded outcome for CCC/C(=N\O)C(O)(CCC)CCC from this test.
inactive

I'd appreciate the recorded outcome for COC1(Cl)CC1C#N (centres undefined) from this test.
inactive

I'd appreciate the recorded outcome for BrC[P+](CBr)(CBr)CBr from this test.
active
